Target: TSSK4 (Homo sapiens, UniProt Q6SA08)
Construct: purchased Eurofins (radiometric) / Eurofins DiscoverX scanMAX / Reaction Biology / SignalChem
Sequence (Q6SA08 whole entry): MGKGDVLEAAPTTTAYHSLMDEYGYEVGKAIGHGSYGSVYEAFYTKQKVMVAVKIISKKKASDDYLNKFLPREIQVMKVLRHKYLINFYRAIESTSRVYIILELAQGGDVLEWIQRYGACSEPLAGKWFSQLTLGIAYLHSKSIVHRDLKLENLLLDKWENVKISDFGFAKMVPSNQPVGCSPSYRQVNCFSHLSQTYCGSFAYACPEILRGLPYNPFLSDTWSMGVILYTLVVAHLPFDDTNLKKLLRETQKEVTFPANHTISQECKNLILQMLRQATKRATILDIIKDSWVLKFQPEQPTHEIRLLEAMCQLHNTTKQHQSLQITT
Experiment: Eurofins enzymatic radiometric kinase assay
Assay type: biochemical
Conditions: ATP at Km, duplicate
Assign condition met whenever TSSK4 PoC at 1 μM does not fall below 80 PoC; assign condition not met whenever it does.

> print(dat)
                                   compound  assigned.category
1  CC(C)(O)C#Cc1ccc2[nH]c3c(c2c1)-c1nc(N)ncc1CC3  condition not met
2  COC(C)(C)C#Cc1ccc2[nH]c3c(c2c1)-c1nc(N)ncc1CCC3      condition met
3  CC(C)(O)C#Cc1ccc2[nH]c3c(c2c1)-c1nc(N)ncc1CCC3 [AMG28, reference compound]  condition not met
4  CC(C)(O)C#Cc1ccc2[nH]c3c(c2c1)-c1nc(N)ncc1CCCC3  condition not met
